# TESTED ON: T1, Gremlin-1 (GREM1), recombinant human (Homo sapiens, UniProt O60565 O60565:25-184)
# T1 sequence: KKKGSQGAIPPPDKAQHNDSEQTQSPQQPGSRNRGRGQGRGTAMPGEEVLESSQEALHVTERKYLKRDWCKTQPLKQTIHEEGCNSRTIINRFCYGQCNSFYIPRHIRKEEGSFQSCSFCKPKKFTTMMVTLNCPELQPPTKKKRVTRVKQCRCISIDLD
# ASSAY COMMENT: ELONA; room temperature, PBS; biotinylated aptamer, streptavidin-HRP
# MEASUREMENT CONDITIONS: label: biotin
MEASURED PROPERTY: Kd (nM)
Please state the figure in nM; there is no need to write the unit.

-- ask Look at this binder and give its reported Kd. UGUGGCAGUUAAGAAUAGAUCUUCGCUGCGAUU (ssRNA, 2'-F pyrimidines (2'-F-C, 2'-F-U; per library chemistry)) [ex-50.T]
-- reply 37.7
